# measuredTarget: Protein Mdm4 (Homo sapiens) + E3 ubiquitin-protein ligase Mdm2 (Homo sapiens) (UniProt O15151+Q00987)
# Sequence (O15151 whole entry, looked up): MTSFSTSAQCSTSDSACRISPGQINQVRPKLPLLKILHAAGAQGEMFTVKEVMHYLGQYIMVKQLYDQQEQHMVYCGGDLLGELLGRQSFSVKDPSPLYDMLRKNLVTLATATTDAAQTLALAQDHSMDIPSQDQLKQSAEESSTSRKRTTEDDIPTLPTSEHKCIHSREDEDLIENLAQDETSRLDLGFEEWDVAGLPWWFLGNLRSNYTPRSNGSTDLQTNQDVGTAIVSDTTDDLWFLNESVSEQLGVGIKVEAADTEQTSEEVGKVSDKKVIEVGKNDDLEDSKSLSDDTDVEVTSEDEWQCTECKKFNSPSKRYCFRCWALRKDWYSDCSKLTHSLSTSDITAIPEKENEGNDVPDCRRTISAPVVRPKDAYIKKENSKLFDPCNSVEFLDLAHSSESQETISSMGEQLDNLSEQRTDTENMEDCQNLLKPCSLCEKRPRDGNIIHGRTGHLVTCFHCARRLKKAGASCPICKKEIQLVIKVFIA
# Sequence (Q00987 whole entry, looked up): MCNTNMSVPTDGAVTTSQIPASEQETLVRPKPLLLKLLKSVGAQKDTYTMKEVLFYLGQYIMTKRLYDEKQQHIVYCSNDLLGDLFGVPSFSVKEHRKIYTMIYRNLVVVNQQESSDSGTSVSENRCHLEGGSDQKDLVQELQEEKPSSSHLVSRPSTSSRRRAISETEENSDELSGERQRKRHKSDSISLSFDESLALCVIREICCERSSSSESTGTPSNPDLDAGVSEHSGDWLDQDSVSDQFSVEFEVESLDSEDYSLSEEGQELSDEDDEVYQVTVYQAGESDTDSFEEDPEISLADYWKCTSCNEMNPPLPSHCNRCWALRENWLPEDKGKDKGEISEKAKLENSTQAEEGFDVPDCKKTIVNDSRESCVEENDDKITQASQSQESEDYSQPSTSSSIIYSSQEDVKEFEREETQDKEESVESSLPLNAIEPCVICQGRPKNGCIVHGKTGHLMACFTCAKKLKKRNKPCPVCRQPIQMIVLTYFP
# methodNotes: inhibitors of human Mdm2-MdmX association, primary screen, cell-based, luminescence, split luciferase, SaOS-2, uHTS (AID 485346)
# conditionParameters: SaOS-2 split-luciferase Mdm2/MdmX complementation, at 8 µM, stronger effect = higher value
The whole screen tested about 330,000 compounds, of which about 10,000 (3%) were called active. Shown is part of a subset that was picked to be rich in actives.
measurementLabel: inhibition (%)
Give bare numbers, in %.

>>> print(df.to_string())
                                   compound  measurementlabel  numericvalue
0  CCN(CC)CCC(c1cc(OC)c(OC)c(OC)c1)c1c(OC)cc(OC)c2c(-c3ccccc3)cc(=O)oc12 (centres undefined)        inhibition          62.7
1  CC(=O)NCCc1ccc(S(=O)(=O)Nc2ccc(C)c(S(=O)(=O)N3CCOCC3)c2)cc1        inhibition          2.62
2  O=C(Nc1cc2c3c(c1)C1CCCC1CN3CC1CCCC21)c1ccc([N+](=O)[O-])cc1 (centres undefined)        inhibition          14.3
3  CCOc1ccccc1NS(=O)(=O)c1cc2c3c(c1)C(C)C(=O)N3CCC2 (centres undefined)        inhibition          14.9
4  C=CCN1C(=O)C(O)(CC(=O)c2ccc(Cl)cc2)c2ccccc21 (centres undefined)        inhibition          4.99
5  Cc1cc(C)n2nc(C(=O)Nc3cccc(S(=O)(=O)N4CCOCC4)c3)nc2n1        inhibition          7.78
6  CN1C(=O)[C@H]2[C@@H](/C=C/c3ccccc3)N3C(=O)CN(Cc4ccc(-c5ccccc5)cc4)C(=O)[C@@]3(C)[C@H]2C1=O        inhibition          22.2
7  COc1ccc(CNS(=O)(=O)c2cc3c4c(c2)CCN4C(=O)CC3)cc1        inhibition         -14.5

Pending compound:
Can you share its inhibition? I mean this compound: `CC1(C)C=Cc2c(ccc3c2OC[C@@H](c2ccc(O)cc2O)C3)O1` -97.4
